Molecular target: 1-deoxy-D-xylulose 5-phosphate reductoisomerase (Mycobacterium tuberculosis, UniProt P9WNS1)
Sequence (P9WNS1 whole entry): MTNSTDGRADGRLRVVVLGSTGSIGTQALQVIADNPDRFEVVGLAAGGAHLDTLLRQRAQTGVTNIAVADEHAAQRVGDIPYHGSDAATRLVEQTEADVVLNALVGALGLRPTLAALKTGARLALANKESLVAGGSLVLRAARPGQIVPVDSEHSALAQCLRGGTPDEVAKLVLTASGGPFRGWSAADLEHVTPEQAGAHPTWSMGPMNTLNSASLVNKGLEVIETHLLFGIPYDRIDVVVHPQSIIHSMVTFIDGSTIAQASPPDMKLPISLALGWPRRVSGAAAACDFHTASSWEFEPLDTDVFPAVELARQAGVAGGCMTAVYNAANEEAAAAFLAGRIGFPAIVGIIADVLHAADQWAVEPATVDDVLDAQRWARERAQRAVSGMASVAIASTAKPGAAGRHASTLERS
Consider the cut-off 2000 nM. If the recorded IC50 is strictly smaller, the label is Y; if not, the label is N.

[[record]]
molecule = "CN(O)C(=O)CSC(c1ccc(F)c(F)c1)P(=O)(O)O (racemic)"
class_name = "Y"

[[record]]
molecule = "CN(O)C(=O)CCC(c1cccc2ccccc12)P(=O)(O)O (stereo unspecified)"
class_name = "N"

[[record]]
molecule = "CN(O)C(=O)CSC(c1cccc2ccccc12)P(=O)(O)O (racemic)"
class_name = "Y"


Problem: Record CN(O)C(=O)COC(c1ccc(Cl)c(Cl)c1)P(=O)(O)O (stereo unspecified) : is its IC50 strictly below 2000 nM?
Solution: Y

Problem: Is it true that IC50 reported for `CN(O)C(=O)CS[C@@H](c1ccccc1)P(=O)(O)O` is less than 2000 nM?
Solution: Y

Problem: Is 2000 nM strictly greater than the molecule's reported IC50? molecule: O=C(CSC(c1ccc(F)c(F)c1)P(=O)(O)O)NO (racemic)
Solution: Y
